biological target: Phosphatidylinositol 4,5-bisphosphate 3-kinase catalytic subunit delta isoform (Homo sapiens); test: Kinase Assay
Sequence (O00329 whole entry, canonical isoform): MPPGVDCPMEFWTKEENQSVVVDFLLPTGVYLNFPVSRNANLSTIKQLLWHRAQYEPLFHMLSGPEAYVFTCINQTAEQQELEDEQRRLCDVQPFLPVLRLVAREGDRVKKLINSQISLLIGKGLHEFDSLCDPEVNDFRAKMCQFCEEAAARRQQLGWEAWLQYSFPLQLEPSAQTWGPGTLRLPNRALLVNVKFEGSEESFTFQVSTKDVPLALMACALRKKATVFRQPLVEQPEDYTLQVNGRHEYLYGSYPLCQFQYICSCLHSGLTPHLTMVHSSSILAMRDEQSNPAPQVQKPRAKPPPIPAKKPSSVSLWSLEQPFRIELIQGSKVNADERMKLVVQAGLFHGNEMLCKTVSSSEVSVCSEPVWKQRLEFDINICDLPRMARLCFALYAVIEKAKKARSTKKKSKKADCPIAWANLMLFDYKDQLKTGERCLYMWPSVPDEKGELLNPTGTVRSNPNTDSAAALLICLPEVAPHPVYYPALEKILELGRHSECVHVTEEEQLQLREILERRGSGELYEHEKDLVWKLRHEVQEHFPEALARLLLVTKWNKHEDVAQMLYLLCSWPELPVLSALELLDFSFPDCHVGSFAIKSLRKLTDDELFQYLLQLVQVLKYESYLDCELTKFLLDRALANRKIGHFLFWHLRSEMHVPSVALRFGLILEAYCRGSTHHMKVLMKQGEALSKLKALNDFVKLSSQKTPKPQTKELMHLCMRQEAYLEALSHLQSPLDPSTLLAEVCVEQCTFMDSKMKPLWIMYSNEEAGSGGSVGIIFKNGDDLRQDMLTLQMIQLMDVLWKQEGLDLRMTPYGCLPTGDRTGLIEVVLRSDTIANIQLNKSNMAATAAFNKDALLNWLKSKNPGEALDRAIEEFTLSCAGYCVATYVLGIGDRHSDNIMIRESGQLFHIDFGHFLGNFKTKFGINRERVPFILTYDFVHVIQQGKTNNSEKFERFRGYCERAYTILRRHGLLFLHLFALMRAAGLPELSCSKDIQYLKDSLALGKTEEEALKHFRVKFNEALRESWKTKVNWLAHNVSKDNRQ
Quantity: IC50 (nM)
All answers are understood in nM, so give the number only.

[in] Tell me the measured IC50 of `Cn1ncc2c(N3CCOCC3)nc(-c3cccc(O)c3)nc21` , please.
[out] 30

* * *

Entries and their IC50
Target: Phosphatidylinositol 4,5-bisphosphate 3-kinase catalytic subunit alpha isoform (Homo sapiens, UniProt P42336)
Sequence (P42336 whole entry, canonical isoform): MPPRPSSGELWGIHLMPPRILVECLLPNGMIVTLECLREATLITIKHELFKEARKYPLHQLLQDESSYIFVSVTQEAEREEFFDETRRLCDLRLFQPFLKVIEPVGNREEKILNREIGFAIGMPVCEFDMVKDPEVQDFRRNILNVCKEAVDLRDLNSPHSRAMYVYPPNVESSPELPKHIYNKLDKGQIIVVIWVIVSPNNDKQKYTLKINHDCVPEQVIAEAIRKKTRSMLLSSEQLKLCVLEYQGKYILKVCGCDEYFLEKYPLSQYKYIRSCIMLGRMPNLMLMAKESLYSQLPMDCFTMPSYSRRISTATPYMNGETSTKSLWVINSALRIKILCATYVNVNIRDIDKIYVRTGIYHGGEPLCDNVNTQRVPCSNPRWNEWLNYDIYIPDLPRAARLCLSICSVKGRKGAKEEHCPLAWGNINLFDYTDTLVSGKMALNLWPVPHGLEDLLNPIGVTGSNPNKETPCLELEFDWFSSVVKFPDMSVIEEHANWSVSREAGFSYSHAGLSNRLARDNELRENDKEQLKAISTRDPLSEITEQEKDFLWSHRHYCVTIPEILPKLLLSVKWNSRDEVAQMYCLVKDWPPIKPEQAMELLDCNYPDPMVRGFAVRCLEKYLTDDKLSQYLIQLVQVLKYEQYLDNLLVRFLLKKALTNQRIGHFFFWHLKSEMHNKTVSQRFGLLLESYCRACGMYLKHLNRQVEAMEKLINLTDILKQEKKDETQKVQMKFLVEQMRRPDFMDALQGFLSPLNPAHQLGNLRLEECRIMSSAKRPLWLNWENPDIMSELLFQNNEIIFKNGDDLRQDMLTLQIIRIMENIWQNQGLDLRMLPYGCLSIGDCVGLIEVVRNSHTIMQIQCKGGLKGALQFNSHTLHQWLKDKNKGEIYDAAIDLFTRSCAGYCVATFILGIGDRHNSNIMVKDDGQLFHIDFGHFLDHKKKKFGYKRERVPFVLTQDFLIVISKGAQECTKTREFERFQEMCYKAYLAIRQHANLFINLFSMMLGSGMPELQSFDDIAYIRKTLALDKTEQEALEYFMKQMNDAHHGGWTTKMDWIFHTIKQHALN
Test: Kinase Assay
Text: Kinase assay using PI3K.
All answers are understood in µM, so give the number only.

Please review the following examples before continuing.
# Smiles, Quantity, Unit of measurement, Experimental result
records = [
    ("Cn1ncc2c(Oc3ccc(Cl)cc3)nc(N3CCOCC3)nc21", "IC50", "µM", 5.51),
    ("CN1CCN(c2nc(Nc3cccc(Cl)c3)c3cnn(C)c3n2)CC1", "IC50", "µM", 4.9),
]

[in] For the compound shown here, `COc1cccc(Nc2nc(N3CCOCC3)nc3c2cnn3C)c1` , give the reported IC50.
[out] 0.4

* * *

target: Phosphatidylinositol 4,5-bisphosphate 3-kinase catalytic subunit alpha isoform (Homo sapiens, UniProt P42336); assay: Kinase Assay
Measured IC50 by item
Report only the number, with the unit µM understood.

# Compound, IC50 [µM]
records = [
    ("COc1cccc(-c2nc(N3CCOCC3)c3cnn(C)c3n2)c1 [ETP-45871, 15]", 5.8),
    ("CC1CN(c2nc(Nc3ccccc3)c3cnn(C)c3n2)CC(C)O1 (stereo not given) [ETP-6531]", 12.6),
    ("CSc1cccc(-c2nc(N3CCOCC3)c3cnn(C)c3n2)c1 [ETP-45875, 16]", 3.53),
    ("COc1cccc(Nc2nc(N3CCN(C)CC3)nc3c2cnn3C)c1 [ETP-7146]", 9.2),
]

Turning now to a further record.
[in] Query: IC50; subject: COc1cccc(Nc2nc(N3CCN(CCO)CC3)nc3c2cnn3C)c1 [ETP-8162]
[out] 12.6

* * *

molecular target: Phosphatidylinositol 4,5-bisphosphate 3-kinase catalytic subunit alpha isoform (Homo sapiens); assay: Kinase Assay
Listed below: pIC50 values for each entry.
Lab note — pIC50 values are minus log10 of concentrations in M.

The examples below pair each entry with its known result.
# Smiles, pIC50
measured = [
    ("Cn1ncc2c(-c3cccc(NS(C)(=O)=O)c3)nc(N3CCOCC3)nc21", 5.78),
    ("Cn1ncc2c(NCc3ccccc3)nc(N3CCOCC3)nc21", 4.43),
    ("CC(C)Oc1nc(N2CCOCC2)nc2c1cnn2C", 4.79),
]

Continue with the molecule presented below.
[in] Returns the measured pIC50 for the input molecule. Input: `Cn1ncc2c(OCc3ccccc3)nc(N3CCOCC3)nc21`
[out] 4.45

* * *

biological target: Phosphatidylinositol 4,5-bisphosphate 3-kinase catalytic subunit alpha isoform (Homo sapiens, UniProt P42336); assay: Kinase Assay
Recorded pIC50, one value per entry.
Kindly note that pIC50 refers to -log10 of the concentration in mol/L and answer with the value alone.

Below are worked cases with known answers.
# Molecule, pIC50
rows = [
    ("COC(=O)c1cccc(-c2nc(N3CCOCC3)c3cnn(C)c3n2)c1 [ETP-45867, 14]", 6.08),
    ("Cn1ncc2c(-c3cccc(O)c3)nc(N3CCOCC3)nc21 [ETP-45798, 9]", 6.94),
    ("Cc1cccc(Oc2nc(N3CCOCC3)nc3c2cnn3C)c1 [ETP-45874, 11]", 6.01),
]

Proceeding to the next molecule to report its pIC50.
[in] I am curious: what pIC50 value has been reported for CC(=O)Nc1cccc(-c2nc(N3CCOCC3)c3cnn(C)c3n2)c1 [ETP-45876, 17] ?
[out] 5.15

These data points were gathered from BindingDB's records for doi:10.1074/jbc.M109.038984.
